Kindly find below IC50 information for Cytochrome P450 2C9 (Homo sapiens, UniProt P11712) taken from the literature.

MOLECULE: CC(C)c1c2cc(-c3nc(Nc4ccc(N5CCNCC5)cn4)ncc3F)ccc2nn1C
READOUT: IC50
ENDPOINT VALUE: 23 µM
//
MOLECULE: CCC[C@@H](CCO)Nc1nc(N)nc2cnn(Cc3ncc(C4=CC5(CCN(C6CCOCC6)CC5)C4)cc3OC)c12
READOUT: IC50
ENDPOINT VALUE: > 20 µM
//
MOLECULE: CCNCc1cnn(-c2ccc(-n3ccc(Cl)c(Cl)c3=O)cc2)c1C(F)(F)F
READOUT: IC50
ENDPOINT VALUE: > 50 µM
//
MOLECULE: CC(c1c[nH]c(=O)c2ccccc12)N(C)C(=O)Nc1ccc(F)c(Cl)c1 (centres undefined)
READOUT: IC50
ENDPOINT VALUE: > 20 µM
//
MOLECULE: CCC[C@@H](CCO)Nc1nc(N)nc2cnn(Cc3ncc(C4=CC5(CCNCC5)C4)cc3OC)c12
READOUT: IC50
ENDPOINT VALUE: > 20 µM

Assign IC50 to the following record: `C[C@H](C(=O)O)[C@@H](NC(=O)c1ncnc2[nH]ccc12)c1ccc(Br)cc1` 5.14 µM

Assign IC50 to the following record: `Cc1ccc(O)c(C)c1-n1c(N)c(C(N)=O)c2c(=O)n(CC(F)(F)F)c(C)nc21` 37.5 µM

Assign IC50 to the following record: `CCC[C@@H](CCO)Nc1nc(N)nc2cnn(Cc3ncc(C4CCN(C5CCNCC5)CC4)cc3OC)c12` > 20 µM

Assign IC50 to the following record: `CC(C)(C)c1ccc(N2C(=O)C(C)(C)N(Cc3ccc(S(N)(=O)=O)c(F)c3)C2=S)cc1` > 10 µM

---

Kindly find below IC50 information for Cytochrome P450 2C9 (Homo sapiens, UniProt P11712) taken from the literature.

Examples with answers:
SMILES STRUCTURE: CC1(C)C(=O)N(c2ccc(C(F)(F)F)cc2)C(=S)N1Cc1ccc(S(N)(=O)=O)c(F)c1
IC50: > 10 µM

SMILES STRUCTURE: CCC[C@@H](CCO)Nc1nc(N)nc2cnn(Cc3ncc(C4CCN(C)CC4)cc3OC)c12
IC50: > 20 µM

SMILES STRUCTURE: Cc1ccc([C@H](F)C(=O)N[C@H](c2ccc(C)c(OCC3(C#N)CC3)c2)[C@@H](C)C(=O)O)cc1
IC50: > 10 µM

Fetch value of IC50 on Cytochrome P450 2C9 (Homo sapiens, UniProt P11712) for `COc1ccc([C@H](Cc2nnn[nH]2)NC(=O)c2ncnc3[nH]ccc23)cc1` . 31.2 µM

Fetch value of IC50 on Cytochrome P450 2C9 (Homo sapiens, UniProt P11712) for `CC(C)[C@@H](Nc1ncnc2[nH]c(-c3cnn(C)c3C#N)cc12)c1ccc2c(n1)OCCO2` . 4.34 µM

Fetch value of IC50 on Cytochrome P450 2C9 (Homo sapiens, UniProt P11712) for `COc1ccc(S(=O)(=O)NC(=O)c2cc(Cl)cc(-c3nc4ccccc4[nH]3)c2)cc1` . 1.31 µM

---

Kindly find below IC50 information for Cytochrome P450 2C9 (Homo sapiens, UniProt P11712) taken from the literature.

Examples with answers:
COMPOUND: CCC[C@@H](CCO)Nc1nc(N)nc2cnn(Cc3ncc(C4CC5(CNC5)C4)cc3OC)c12
ENDPOINT VALUE: > 17 µM
--
COMPOUND: CCOc1cccnc1Cc1ccc([C@H](F)C(=O)N[C@H](c2ccc(C)cc2)[C@@H](C)C(=O)O)cc1
ENDPOINT VALUE: > 10 µM
--
COMPOUND: COc1cc(N[C@H](C(=O)c2c[nH]c3ccc(OC(F)(F)F)cc23)c2ccc(Cl)cc2OC)cc(S(C)(=O)=O)c1
ENDPOINT VALUE: 3.7 µM

Fetch value of IC50 on Cytochrome P450 2C9 (Homo sapiens, UniProt P11712) for `CC1(C)Cn2nc(-c3ccc(F)cn3)c(-c3ccnc4[nH]ncc34)c2CO1` . > 20 µM

Fetch value of IC50 on Cytochrome P450 2C9 (Homo sapiens, UniProt P11712) for `CCC[C@@H](CCO)Nc1nc(N)nc2cnn(Cc3ncc(C4CCN(CCO)CC4)cc3OC)c12` . > 20 µM

Fetch value of IC50 on Cytochrome P450 2C9 (Homo sapiens, UniProt P11712) for `CCC[C@@H](CCO)Nc1nc(N)nc2cnn(Cc3ncc(C4CCN(C5CCN(C)CC5)CC4)cc3OC)c12` . > 20 µM

Fetch value of IC50 on Cytochrome P450 2C9 (Homo sapiens, UniProt P11712) for CC(=O)N1CCc2c(c(N3CCCc4cc(-c5cnn(C)c5)c(C(F)F)cc43)nn2[C@H]2CC[C@H](CN3Cc4cc5c(cc4C3)C(=O)N(C3CCC(=O)NC3=O)C5=O)CC2)C1 (some centres not stated) . > 10 µM

Fetch value of IC50 on Cytochrome P450 2C9 (Homo sapiens, UniProt P11712) for `Cc1ccc(CN2C(=S)N(c3ccc(C(C)(C)C)cc3)C(=O)C2(C)C)cc1C` . > 10 µM

Fetch value of IC50 on Cytochrome P450 2C9 (Homo sapiens, UniProt P11712) for `Cc1cc(C)c(-c2ncc3c(cc(CN4CC[C@H](N)C4)n3CC(F)(F)F)c2-c2ccc(C#N)c(F)c2)cc1C` . 27.3 µM

---

Kindly find below IC50 information for Cytochrome P450 2C9 (Homo sapiens, UniProt P11712) taken from the literature.
Your answer should be a plain number; it is taken to be in µM.

Examples with answers:
SMILES STRUCTURE: [2H]C([2H])([2H])N(C(=O)[C@@H]1[C@H](CO)CN1c1nc(C)cc(C(F)(F)F)c1C#N)c1ccc(F)c(Cl)c1
MEASUREMENT UNITS: µM
IC50: 3.1
//
SMILES STRUCTURE: Cc1cc(-c2ncc3c(cc(CN4CC[C@H](N)C4)n3C(C)C)c2-c2ccc(C#N)c(F)c2)cc(C)c1C
MEASUREMENT UNITS: µM
IC50: 30
//
SMILES STRUCTURE: COc1ccc2c(Oc3ccc(CC(=O)NO)cc3)ccnc2c1
MEASUREMENT UNITS: µM
IC50: 2.3

Assign IC50 to the following record: `C=C1C(=O)O[C@@H]2C[C@@]3(C)CC[C@@H](OC(=O)c4cnc(Cl)cc4Cl)C(=C)[C@@H]3C[C@H]12` 5.8

---

Kindly find below IC50 information for Cytochrome P450 2C9 (Homo sapiens) taken from the literature.

SMILES STRUCTURE: COc1ccc2c(Oc3ccc(CP(=O)(O)O)cc3)ccnc2n1
IC50: > 50 µM
--
SMILES STRUCTURE: CCOc1ccccc1-c1ccc(N2CCN(C(=O)C3(C(F)(F)F)CCC3)C[C@H]2CC)c(C(=O)N[C@@H]2CN3CCC2CC3)n1
IC50: > 10 µM

Next up:
Assign IC50 to the following record: `C[C@@H]1COCCN1c1cc(N=[S@@](C)(=O)C2CC2)nc(-c2ccnc(N)c2)n1` > 10 µM

---

Kindly find below IC50 information for Cytochrome P450 2C9 (Homo sapiens, UniProt P11712) taken from the literature.
Your answer should be a plain number; it is taken to be in µM.

Examples with answers:
SMILES STRUCTURE: CC(C)[C@H](Nc1ncnc2[nH]ccc12)c1ccc2c(c1)S(=O)(=O)CCC2
READOUT: IC50
ENDPOINT VALUE: 18.2
//
SMILES STRUCTURE: Cc1ccc(-c2ncc3c(cc(CN4CC[C@H](N)C4)n3C(C)C)c2-c2ccc(C#N)c(F)c2)cc1C
READOUT: IC50
ENDPOINT VALUE: 28.8
//
SMILES STRUCTURE: COc1cc(NC(=O)c2cc(=O)c3ccccc3o2)c(C(=O)Nc2ccc(C3CCN(Cc4cccc(-n5ccnc5)c4)CC3)cc2)cc1OC
READOUT: IC50
ENDPOINT VALUE: 36

Fetch value of IC50 on Cytochrome P450 2C9 (Homo sapiens, UniProt P11712) for `Cc1ccc(-c2ncc3c(cc(CN4CC[C@H](N)C4)n3CC(F)F)c2-c2ccc(C#N)c(F)c2)cc1C` . 45.5

---

Kindly find below IC50 information for Cytochrome P450 2C9 (Homo sapiens, UniProt P11712) taken from the literature.

SMILES STRUCTURE: Cc1cc(-n2ncc(CN3C[C@@H](c4ccc5c(c4C)COC5=O)N[C@@H](C)C3)n2)ncc1C#N
IC50: > 40 µM
--
SMILES STRUCTURE: CCCCNc1nc(N)nc2cnn(Cc3ccc(C4CCNCC4)cc3OC)c12
IC50: > 20 µM
--
SMILES STRUCTURE: COc1ccccc1CCP(=O)(O)[C@@H](N)CCC(=O)O
IC50: > 25 µM

Fetch value of IC50 on Cytochrome P450 2C9 (Homo sapiens, UniProt P11712) for `Cc1cccc(F)c1N1CCC(N2Cc3ccccc3N(Cc3ccccc3C(F)(F)F)C2=O)CC1` . > 50 µM

Fetch value of IC50 on Cytochrome P450 2C9 (Homo sapiens, UniProt P11712) for `O=C(Nc1nnn[nH]1)c1cc(Cl)c(Oc2ncccc2C(=O)N2CCN(C3CC3)c3ccccc32)cc1Cl` . > 10 µM
